system: P388; assay: The average percentage increase in the lifespan of P388 leukemic mice, when compound was administered intraperitoneally; assay type: functional, Mus musculus
Exercise: state measured ILS for each of the compounds provided.
The reply should be a number in %, with the unit left off.

Any idea what ILS was measured for "O=C(O)Cc1cccc2c(=O)c3cccc(Cl)c3oc12" ?
34

Entry "Cc1cccc2c(=O)c3cccc(CC(=O)O)c3oc12" please
27

Same for "Cc1ccc2c(=O)c3ccccc3oc2c1CC(=O)O"
26

Cool, now "Cc1ccc2c(=O)c3cccc(CC(=O)O)c3oc2c1"
24

What do you get for "COc1ccc2c(=O)c3cccc(CC(=O)O)c3oc2c1" ?
28

Then "COc1cccc2c(=O)c3cccc(CC(=O)O)c3oc12" ?
42
